Value source: the supplement of paper PMC7125110

Quick reference: kcat of the listed items.
B1: glmS ribozyme (parent)
chain: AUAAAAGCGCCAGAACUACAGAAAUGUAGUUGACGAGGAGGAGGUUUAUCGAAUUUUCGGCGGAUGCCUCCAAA

Variants of: B1
Experimental details: kcat; higher = faster cleavage; RNA array
Condition notes: with glucosamine-6-phosphate
This sample holds only a part of the variants without activity.
I only need the number, in s⁻¹, no unit after it.

Consider the worked cases shown below.
mutation_spec="A36U G37A" assay_value=1.19e-05
mutation_spec="A15G G29C" assay_value=0.00276
mutation_spec="C68G U69G" assay_value=2.17e-05

Lab note: C11A C50A gave kcat of 1.11e-05

Lab note: U47A A48G gave kcat of 7.44e-05

Lab note: A12U C68G gave kcat of 0.000191

Lab note: G13U A39G gave kcat of 0.00264

Lab note: G41A G66U C70A gave kcat of 0.000127
